Test: Pharmacokinetics study, subcutaneous apixaban injection (Embodiment 4)
Type: in vivo, humans
Conditions: human, plasma, sc, 2.5 mg, plasma drug concentration of apixaban, subject C-01; Time 16 h; 1 mL of 2.5 mg/mL apixaban injection subcutaneously
valueType: concentration at 16 h (ng/mL)
Only the number, expressed in ng/mL, is required.

I am curious: what concentration at 16 h value has been reported for COc1ccc(-n2nc(C(N)=O)c3c2C(=O)N(c2ccc(N4CCCCC4=O)cc2)CC3)cc1 [apixaban, Apixaban] ?
22.8

###

Experiment: Pharmacokinetics study, subcutaneous apixaban injection (Embodiment 4)
Format: in vivo, humans
Settings: human, plasma, sc, 2.5 mg, plasma drug concentration of apixaban, subject C-03; Time 8 h; 1 mL of 2.5 mg/mL apixaban injection subcutaneously
valueType: concentration at 8 h (ng/mL)
Number in ng/mL, nothing else.

Using the record for COc1ccc(-n2nc(C(N)=O)c3c2C(=O)N(c2ccc(N4CCCCC4=O)cc2)CC3)cc1 , report its concentration at 8 h.
37.6
